# TARGET_ENTITY: Proto-oncogene tyrosine-protein kinase receptor Ret (Homo sapiens)
# Sequence (P07949 whole entry): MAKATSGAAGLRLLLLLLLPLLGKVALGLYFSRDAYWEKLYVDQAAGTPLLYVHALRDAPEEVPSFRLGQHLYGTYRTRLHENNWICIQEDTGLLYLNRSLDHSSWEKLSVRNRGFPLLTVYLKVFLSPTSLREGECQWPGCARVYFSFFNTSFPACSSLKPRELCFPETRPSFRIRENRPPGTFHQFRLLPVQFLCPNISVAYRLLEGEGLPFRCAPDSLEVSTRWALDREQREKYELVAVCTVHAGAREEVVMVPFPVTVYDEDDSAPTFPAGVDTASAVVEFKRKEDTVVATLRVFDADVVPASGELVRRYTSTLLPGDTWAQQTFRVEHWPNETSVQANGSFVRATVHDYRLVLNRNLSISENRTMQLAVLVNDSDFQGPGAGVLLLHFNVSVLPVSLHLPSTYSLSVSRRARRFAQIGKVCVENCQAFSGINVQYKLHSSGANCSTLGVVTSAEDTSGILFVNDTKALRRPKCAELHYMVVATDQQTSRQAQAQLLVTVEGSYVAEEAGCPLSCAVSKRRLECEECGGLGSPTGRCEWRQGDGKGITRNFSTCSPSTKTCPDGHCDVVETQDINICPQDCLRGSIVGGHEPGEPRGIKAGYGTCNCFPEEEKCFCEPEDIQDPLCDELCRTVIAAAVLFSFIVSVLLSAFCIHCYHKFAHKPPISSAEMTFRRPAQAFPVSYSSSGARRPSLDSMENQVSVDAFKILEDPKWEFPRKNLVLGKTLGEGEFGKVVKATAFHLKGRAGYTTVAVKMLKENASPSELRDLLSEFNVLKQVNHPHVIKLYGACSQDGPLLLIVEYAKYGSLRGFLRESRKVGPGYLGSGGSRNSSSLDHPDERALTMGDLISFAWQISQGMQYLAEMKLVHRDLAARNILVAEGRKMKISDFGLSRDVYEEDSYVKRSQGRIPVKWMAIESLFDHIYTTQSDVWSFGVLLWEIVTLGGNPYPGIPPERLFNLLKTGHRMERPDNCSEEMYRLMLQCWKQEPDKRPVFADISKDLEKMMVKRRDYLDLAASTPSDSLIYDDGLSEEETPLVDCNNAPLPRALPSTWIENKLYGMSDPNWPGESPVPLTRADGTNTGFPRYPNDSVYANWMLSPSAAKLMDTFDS
In this section, each of the compounds is paired with its reported pIC50.
Would you please state pIC50, meaning minus log10 of the concentration in mol/L, as a bare number?

INSERT INTO assay_data (compound, reported_measurement) VALUES
  ('Cc1cc(Nc2ccnc(N3CC4CCC(C3)N4C(=O)c3ccc(-n4cc(F)cn4)nn3)n2)n[nH]1 [US12234222, Compound I-14]', 8.41);

Response field pIC50 (Proto-oncogene tyrosine-protein kinase receptor Ret (Homo sapiens)) for item Cc1cc(Nc2cc(C)[nH]n2)nc(N2CC3CCC(C2)N3C(=O)c2ccc(-n3cc(Cl)cn3)nc2)n1 [US12234222, Compound I-8] : 8.77

Attribution: BindingDB's records for patent US12234222
